# Tested on: Escherichia coli TOP10;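 further: peptides expressed intracellularly from a pBAD plasmid library in pooled LB shake-flask culture, induced with 0.3% L-arabinose, DNA abundance read by NGS, three biological replicates, DESeq2 with apeglm shrinkage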
# assay.method.text: shrunken log2 fold change of peptide-encoding DNA abundance (4.5 h post-induction vs induction); higher = less antimicrobial activity (less host growth inhibition)
# assay.context: time post-induction: 4.5 h; library: site-saturation at positions 5, 18, 19, 20
Please mark 1 (yes) if the recorded shrunken log2 fold change is equal to or greater than -0.05, and 0 (no) if it falls below.

sequence_string=RRIRKRPPRLPRPRPRPPHRPRP category="1 (yes)"
sequence_string=RRIRLRPPRLPRPRPRPWLDPRP category="0 (no)"
sequence_string=RRIRIRPPRLPRPRPRPHYIPRP category="0 (no)"

Continue with the sequence presented below.
Q: Confirm if shrunken log2 fold change reported for the sequence RRIRQRPPRLPRPRPRPMRCPRP is -0.05 or above.
Result: 1 (yes)
